The measured values listed here are drawn from ChEMBL document CHEMBL2434927.

# tested-target: Receptor-type tyrosine-protein kinase FLT3 (Homo sapiens)
# Sequence (P36888 whole entry): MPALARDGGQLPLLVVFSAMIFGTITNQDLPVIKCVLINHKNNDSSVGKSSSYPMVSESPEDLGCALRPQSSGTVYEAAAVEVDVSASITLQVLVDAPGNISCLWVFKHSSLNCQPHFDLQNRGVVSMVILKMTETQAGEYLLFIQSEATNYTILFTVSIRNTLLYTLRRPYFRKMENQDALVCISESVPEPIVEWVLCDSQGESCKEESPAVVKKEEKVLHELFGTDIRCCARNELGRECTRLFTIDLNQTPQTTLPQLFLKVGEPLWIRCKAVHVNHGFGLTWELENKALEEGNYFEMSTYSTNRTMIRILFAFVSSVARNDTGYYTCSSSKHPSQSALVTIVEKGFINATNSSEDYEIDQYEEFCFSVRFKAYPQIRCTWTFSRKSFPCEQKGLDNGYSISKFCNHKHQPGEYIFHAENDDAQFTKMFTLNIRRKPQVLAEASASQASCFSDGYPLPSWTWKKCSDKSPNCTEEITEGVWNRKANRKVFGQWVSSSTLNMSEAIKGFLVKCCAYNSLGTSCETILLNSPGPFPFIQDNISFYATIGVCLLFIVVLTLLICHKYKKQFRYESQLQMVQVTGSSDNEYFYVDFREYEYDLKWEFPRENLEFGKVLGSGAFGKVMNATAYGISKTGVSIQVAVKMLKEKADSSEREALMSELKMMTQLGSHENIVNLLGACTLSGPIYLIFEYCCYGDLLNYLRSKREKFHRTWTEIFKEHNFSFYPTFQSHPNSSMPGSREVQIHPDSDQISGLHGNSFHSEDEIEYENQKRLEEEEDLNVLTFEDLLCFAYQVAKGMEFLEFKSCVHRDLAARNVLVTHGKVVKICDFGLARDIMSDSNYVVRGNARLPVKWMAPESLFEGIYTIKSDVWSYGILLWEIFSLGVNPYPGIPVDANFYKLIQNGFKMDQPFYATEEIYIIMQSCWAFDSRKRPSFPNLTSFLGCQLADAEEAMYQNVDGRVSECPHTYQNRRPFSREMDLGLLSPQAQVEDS
assay-metric: IC50 (nM)

INSERT INTO assay_data (given_smiles, value_reported) VALUES
  ('CC(C)n1c2c(c3c1-c1ccccc1C3=O)C(=O)CCC2=O', 180);
